List of IC50 values.
molecular target: HLA-B∗38:01 (purified MHC molecules) (human); test: radioligand binding

sequenceChain | IC50
YHFLQIPT (human G6Pase 2, position 307) (peptide) | 9.75 µM
MRLLPLLA (human insulin, position 5, 8mer) (peptide) | 44.5 µM

====

target: HLA-B∗38:01 (Homo sapiens, UniProt P01889, A182T/A93T/A95T/C349S/D138N/D201E/D98Y/E176V/E187T/E204Q/G107R/K202T/L105A/N104I/Q94N/R106L/R155S/R180L/S101N/S121R/Y140F/Y91C); assay: biochemical
No end group written: not given here.
IC50 vs 7 µM: less than gives criterion met; not less than gives criterion not met.

sequenceChain | classAssignment
TNLFLFLFAV | criterion met
FLFLFAVG | criterion not met
MRLLPLLA | criterion not met
SHLVEALYL | criterion met
SASIPLTVVA | criterion not met
FRLLCALTSL | criterion met
YHFLQIPT | criterion not met
THFPHQVIL | criterion met
WMRLLPLLA | criterion not met
NRVMLPKAA | criterion not met
MRLLPLLAL [MRLLPLLAL] | criterion met
